All values here come from patent US4906662A.

- Tested On: 5-lipoxygenase (Cavia porcellus, UniProt A0A286X958)
- Construct: endogenous in cells; host or cells: guinea pig peritoneal exudate cells (casein-elicited), intact cell suspension
- Test Details: 5-Lipoxygenase inhibitory activity (5-HETE formation in guinea pig peritoneal exudate cells)
- Assay type: cell-based
- Run Parameters: 10 μM; read-out: Percent inhibition of 5-lipoxygenase
Where a name gives a salt, the structure may show the parent alone.
Reported Property: inhibition at 10 µM (%)

[[record]]
molecule = "Cc1cc(Nc2ccc(CC(=O)O)cc2)c2c(c1O)CCCC2"
reported_property = "inhibition at 10 µM"
measured_number = 90

[[record]]
molecule = "COc1ccc(Nc2cc(C)c(O)c(C)c2C)cc1"
reported_property = "inhibition at 10 µM"
measured_number = 95

[[record]]
molecule = "CC(C)(C)c1cc(Nc2cccc(C(=O)O)c2)cc(C(C)(C)C)c1O"
reported_property = "inhibition at 10 µM"
measured_number = 51

[[record]]
molecule = "CC(C)(C)c1cc(Nc2cccc(CO)c2)cc(C(C)(C)C)c1O [Compound 31, hydrochloride]"
reported_property = "inhibition at 10 µM"
measured_number = 88


----------
- Tested On: 5-lipoxygenase (Cavia porcellus)
- Construct: endogenous in cells; host or cells: guinea pig peritoneal exudate cells (casein-elicited), intact cell suspension
- Sequence (A0A286X958 1-674): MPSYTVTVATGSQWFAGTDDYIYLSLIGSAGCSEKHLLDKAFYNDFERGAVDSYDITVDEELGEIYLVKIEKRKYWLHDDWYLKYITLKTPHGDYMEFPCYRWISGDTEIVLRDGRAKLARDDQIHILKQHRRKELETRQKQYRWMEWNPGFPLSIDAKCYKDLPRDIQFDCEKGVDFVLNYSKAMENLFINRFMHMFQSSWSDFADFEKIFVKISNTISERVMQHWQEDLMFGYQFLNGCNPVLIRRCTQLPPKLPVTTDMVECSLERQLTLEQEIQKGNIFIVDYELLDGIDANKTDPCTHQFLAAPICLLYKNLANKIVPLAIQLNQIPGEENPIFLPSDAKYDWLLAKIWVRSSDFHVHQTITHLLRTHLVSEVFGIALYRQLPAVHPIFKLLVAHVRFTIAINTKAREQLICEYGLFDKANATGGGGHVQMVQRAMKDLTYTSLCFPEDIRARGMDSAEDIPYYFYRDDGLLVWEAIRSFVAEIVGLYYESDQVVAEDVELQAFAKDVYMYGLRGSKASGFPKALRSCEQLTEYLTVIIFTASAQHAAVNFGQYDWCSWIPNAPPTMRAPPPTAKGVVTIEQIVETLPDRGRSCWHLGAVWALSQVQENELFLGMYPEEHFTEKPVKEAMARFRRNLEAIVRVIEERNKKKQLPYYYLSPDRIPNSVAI
- Test Details: 5-Lipoxygenase inhibitory activity (5-HETE formation in guinea pig peritoneal exudate cells)
- Type: cell-based
- Run Parameters: 1 μM; read-out: Percent inhibition of 5-lipoxygenase
Classify by measured inhibition at 1 µM: 1.0 if it is equal to or exceeds 30%, 0.0 if it is smaller.

[[record]]
chemical_string = "Cc1ccc(Nc2cc(C(C)(C)C)c(O)c(C(C)(C)C)c2)cc1"
group_label = 0.0

[[record]]
chemical_string = "Cc1cc(Nc2cccc(CC(=O)O)c2)c(C)c(C)c1O"
group_label = 1.0

[[record]]
chemical_string = "CC(C)(C)c1cc(Nc2ccc(C(=O)O)cc2)cc(C(C)(C)C)c1O"
group_label = 1.0

[[record]]
chemical_string = "CC(C)(C)c1cc(Nc2ccc(CC(=O)O)cc2)cc(C(C)(C)C)c1O"
group_label = 0.0

[[record]]
chemical_string = "Cc1cc(Nc2ccccc2)c2c(c1O)CCCC2"
group_label = 1.0

[[record]]
chemical_string = "CC(C)(C)c1cc(Nc2cccc(C(=O)O)c2)cc(C(C)(C)C)c1O"
group_label = 0.0

